system: UniProtKB P00533
Sequence (P00533 668-1210): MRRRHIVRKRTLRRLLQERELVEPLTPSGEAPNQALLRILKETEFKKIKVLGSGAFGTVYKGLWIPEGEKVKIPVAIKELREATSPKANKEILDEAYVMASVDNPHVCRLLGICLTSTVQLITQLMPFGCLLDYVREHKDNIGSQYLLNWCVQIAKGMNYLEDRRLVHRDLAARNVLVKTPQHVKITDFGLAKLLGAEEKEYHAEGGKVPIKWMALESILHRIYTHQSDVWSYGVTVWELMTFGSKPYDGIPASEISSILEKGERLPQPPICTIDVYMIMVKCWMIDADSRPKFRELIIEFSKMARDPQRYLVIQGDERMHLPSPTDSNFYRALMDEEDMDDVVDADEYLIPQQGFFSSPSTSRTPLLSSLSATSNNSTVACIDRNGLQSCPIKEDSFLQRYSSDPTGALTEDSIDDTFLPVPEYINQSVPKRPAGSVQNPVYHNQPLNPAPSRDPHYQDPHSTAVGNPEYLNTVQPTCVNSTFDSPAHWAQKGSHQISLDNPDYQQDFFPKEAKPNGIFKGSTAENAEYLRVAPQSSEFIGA

# compound, IC50
records = [
    ("CCCC(=O)O[C@]1(C)CC[C@H](C(C)C)[C@@H]2[C@H]1[C@H]1C[C@](C)(O)[C@@H](O)CC[C@@](C)(OC(C)=O)[C@@H]2O1 [compound 1, Pachycladin A]", "0.57 µM"),
]
